The reported measurements were obtained from PubChem BioAssay (NCI).

Recorded TGI values for a group of compounds are listed next.
Tested on: HT29 colon
Experiment: NCI tumour cell line growth inhibition, 48 h
Where a SMILES comes first, the peptide text is derived from it. [ ]: non-standard residue; d: D form. The star is where a group is joined. ξ: configuration not given here. NMeY = CN[C@@H](Cc1ccc(O)cc1)C(=O)O; Cbz = O=C(OCc1ccccc1)*; ξA = CC(N)C(=O)O

COc1ccc(C[C@@H](C(=O)NCC(N)=O)N(C)C(=O)[C@@H]2CCCN2C(=O)[C@H](CC(C)C)NC(=O)C(C)NC(=O)OCc2ccccc2)cc1 (some centres not stated) (Cbz-[ξA]LP[NMeY](Me)G-NH2) | > 100 µM
O=C1c2cccnc2C(=O)c2c1c(C(=O)OCCCN1CCOCC1)c1ccccn21 | 2.18 µM
COc1ccc(CNc2nc(NCc3ccc(OC)cc3)nc(NC3CCCCC3)n2)cc1 | > 100 µM

Given the entry COc1cc2ccn3c4cc(OC)c(OC)cc4cc3c2cc1OC , what TGI was observed with HT29 colon? > 100 µM

Item Cc1ccc(Nc2nc(=O)[nH]c(=O)[nH]2)cc1N with HT29 colon - TGI? > 100 µM

State its TGI on HT29 colon: COc1cc[nH]c1/C=C1\C(=O)Nc2ccc(F)c(C#CC3(O)CCOCC3)c21 2.81 µM

Request: TGI, test system HT29 colon, entry COc1ccc([Se]c2ccc(OC)cc2OC)c(OC)c1 29.7 µM

Request: TGI, test system HT29 colon, entry O=C(Nc1cccc2nsnc12)c1cc2c(cc1Cl)Sc1nccn1S2(=O)=O 7.67 µM

###

Test system: T-47D breast
Experiment: NCI tumour cell line growth inhibition, 48 h; in the data active = GI50 below about 0.43 µM; inactive = the rest
The reply should be one of these categories: active, inactive

Assay outcome for COc1ccc(/C=C\c2cc(OC)c(OC)c(OC)c2)cc1OP(=O)(O)O : what was it? inactive

Please share the test call associated with O=C1OC(c2ccc(O)cc2)(c2ccc(O)cc2)c2cccc3cccc1c23 . active

Outcome? COc1ccc2nc3ccc(OC)cc3c(SCCCN)c2c1 inactive

Record lookup: outcome of this test for CN1CCCC1c1cccnc1.O=C(O)c1ccccc1O.O=C([O-])c1ccccc1[OH2+].O=C([O-])c1ccccc1[OH2+].O=C([O-])c1ccccc1[OH2+].[Mn+2] (stereo not given) ? inactive

What is the recorded call for this compound in the test? CC1Cc2c(N(C)C)ncnc2N(C)c2ccc(Cl)cc21 (stereo not given) inactive

###

System: A498 renal
Assay: NCI tumour cell line growth inhibition, 48 h
// TGI lookup, one value per entry

COc1cn2c(cc1=O)COc1ccc(-c3ccccc3)cc1-2 | > 100 µM
O=C(OCc1ccccc1CN1CCOCC1)c1ccc(Br)cc1 | > 100 µM
O=C(N[C@@H]1CCCc2ccccc21)[C@H](CCC(=O)N1CCN(C2CCCCC2)CC1)N1C(=O)[C@@H](N2C(=O)OC[C@@H]2c2ccccc2)[C@H]1/C=C/c1ccccc1 | 5.3 µM
CC(C)OP(=O)(CP(=O)(OC(C)C)OC(C)C)OC(C)C.[CH3][Sn]([Br])([Br])[Br] | > 100 µM

Let us move to another entry and its TGI.
For A498 renal, provide TGI of O=C(C[C@@H]1NCCC[C@H]1O)Cn1cnc2cc(Br)c(Cl)cc2c1=O please. 0.316 µM
